system: UO-31 renal; test: NCI tumour cell line growth inhibition, 48 h; in the data active = GI50 below about 0.43 µM; inactive = the rest
API: response.call in active, inactive

Req: Lab log entry: CCOC(=S)SCN1C(=O)c2ccccc2S1(=O)=O — outcome as called in the assay?
Resp: inactive

Req: Lab log entry: Cc1nnc(-c2ccc(-c3nc4ccccc4o3)cc2)o1 — outcome as called in the assay?
Resp: inactive

Req: Lab log entry: COc1ccc2[nH]c(O)c(/C=c3/cc4c(c(-c5ccc(F)cc5)n3)=Nc3ccccc3-4)c2c1 — outcome as called in the assay?
Resp: inactive

Req: Lab log entry: COc1ccc(/C=N/N=C(\[O-])c2ccncc2)cc1F.COc1ccc(/C=N\N=C(/[O-])c2ccncc2)cc1F.[Cu+2] — outcome as called in the assay?
Resp: inactive

Req: Lab log entry: CC(=O)N1CCN(CCOc2ccc(C3CCN(C4=Nn5c(nnc5C(F)(F)F)CC4)CC3)cc2)CC1 — outcome as called in the assay?
Resp: inactive

Req: Lab log entry: C#Cc1cc2c(N)c(C(=O)c3cc(OC)c(OC)c(OC)c3)[nH]c2cc1OC — outcome as called in the assay?
Resp: inactive

Req: Lab log entry: CN(C)CCNc1nc2ccccc2c2c(=O)c3ccccc3sc12 — outcome as called in the assay?
Resp: inactive

Req: Lab log entry: CC(=O)C1(O)Cc2c(O)c3c(c(O)c2C(OC2CC(N)C(O)C(C)O2)C1)C(=O)c1ccccc1C3=O (stereo not given) — outcome as called in the assay?
Resp: active

Req: Lab log entry: CCOC(=O)CC[C@H](N)C(=O)N[C@H](Cc1ccc(N(CCCl)CCCl)cc1)C(=O)OCC — outcome as called in the assay?
Resp: active

Req: Lab log entry: COc1ccc(-c2c(N)n[nH]c2-c2cc(OC)c(OC)c(OC)c2)cc1 — outcome as called in the assay?
Resp: inactive

====

test system: UACC-257 melanoma; assay: NCI tumour cell line growth inhibition, 48 h
Measure Name: TGI (µM)
# number only, unit µM dropped from output

Req: For the molecule O=C(Nc1ccc(I)cc1F)c1cc(I)ccc1O , give its measured TGI value.
Resp: 2.6

Req: For the molecule CC(C)N(C(C)C)P(OCCC#N)OC1CC(n2cnc3c(=O)[nH]cnc32)OC1COC(=O)NCCCCCCNC(=O)OC(C)(C)c1ccc(-c2ccccc2)cc1 (stereo not drawn) , give its measured TGI value.
Resp: 30.3

Req: For the molecule COc1cc2c(cc1OCCCCCOc1cc3c(cc1OC)C(=O)N1CCC[C@H]1CN3)N=C[C@@H]1CCCN1C2=O , give its measured TGI value.
Resp: 31.9

Req: For the molecule CC1(C)[C@@H](OC(N)=O)C=C[C@]2(C=O)[C@H]3CC[C@]4(C)[C@@H](c5ccc(=O)oc5)[C@@H](Cl)C[C@]4(O)C3=CC[C@@H]12 , give its measured TGI value.
Resp: 0.0141

Req: For the molecule O=C(CCl)Nc1cc(O)c2c(c1)C(=O)c1cccc(O)c1C2=O , give its measured TGI value.
Resp: 6.41

Req: For the molecule C#CCN(Cc1nc2cc(C(F)(F)F)ccc2nc1-c1ccccc1)c1ccc(F)c(F)c1 , give its measured TGI value.
Resp: 64.9

Req: For the molecule CCOC(=O)c1ccccc1-c1c2ccc(=[N+](C)C)cc-2oc2cc(N(C)C)ccc12 , give its measured TGI value.
Resp: 7.58

Req: For the molecule COc1ccc(/C=N/N=C(\[O-])c2ccncc2)cc1F.COc1ccc(/C=N\N=C(/[O-])c2ccncc2)cc1F.[Cu+2] , give its measured TGI value.
Resp: 40.2
